Data provenance is patent US20210363269A1.

assayed-system: T1, cynomolgus SIRP-α D1 domain (cyno1) (cynomolgus monkey, UniProt Q5TFQ8 30-148 (human entry), limits assumed)
T1 chain: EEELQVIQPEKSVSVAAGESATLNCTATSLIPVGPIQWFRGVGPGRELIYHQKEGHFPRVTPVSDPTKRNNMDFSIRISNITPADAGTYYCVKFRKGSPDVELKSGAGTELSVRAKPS
experiment: SPR, Langmuir fit
experimental-readout: koff (s⁻¹)
Give the quantity in s⁻¹, number only.

Query: Please supply the value of reported koff for the item S59 (scFv, V domains shown, also called clone 59) VH: DVQLVESGGGVVRPGESLRLSCAVSGFRFSSHAMSWVRQAPGKGLEWVSGISSGGDTYYVDSVKGRFTISRDNSKNTLYLQVNSLTAEDTAIYYCARETWNHLFDYWGLGTLVTVSS VL: ALTQPASVSANLGETVKITCSGGDSSSHYYGWYQQKSPGSAPVTVIYSDDERPSDIPSRFSGSASGSTATLTITGVRVEDEAIYYCGAYDGSTYANTFGAGTTLTVL
Result: 0.000106

Query: Please supply the value of reported koff for the item S17 (scFv, V domains shown, also called clone 17) VH: DVQLVESGGAVVRPGESLRLSCAASGFTFSSYAMSWVRQAPGKGLEWLAGISAGGSDTYYIDSVKGRFTISRDNSENSLYLQMNSLTAEDTAVYYCARETWNHLFDYWGLGTLVTVSS VL: ALTQPASVSANPGETVKITCSGGDWYSTYYGWYQQKSPGSAPVTVIHSDDKRPSDIPSRFSGSASGSAATLTITGVRVEDEAVYYCAGYDGRTYINTFGAGTTLTVL
Result: 0.000193

Query: Please supply the value of reported koff for the item S22 (scFv, V domains shown, also called clone 22) VH: DVQLVESGGGVVRPGESLRLSCAASGFTFSSYAMSWVRQAPGKGLEWLAGISAGGSDTYYIDSVKGRFTISRRQFQEQSLSPNEPALTAEDTAVYYCARETWNHLFDYWGLGTLVTVSS VL: ALTQPASVSANPGETVKITCSGGDYYSTYYGWYQQKSPGSAPVTVIHSDDKRPSDIPSRFSGSASGSAATLTIAGVRVEDEAVYFCGAYDGRTYINTFGAGTTLTVL
Result: 0.000177

Query: Please supply the value of reported koff for the item S28 (scFv, V domains shown, also called clone 28) VH: DVQLVESGGGVVRPGESLRLSCAASGFSFSSNAMSWVRQAPGKGLEWVAGISASGDTYYSGSMKGRFTISRDNSKNTLYLQMNSLTAEDTAVYYCARETWNHLFDYWGLGTLVTVSS VL: ALTQPASVSANPGETVKITCSGGSDSYYYGWHQQKSPGSAPVTVIYSDDQRPPDIPSRFSGSASGSTTTLTITGVRAEDEAVYYCGGYDYSTYTNTFGAGTTLTVL
Result: 0.000115
